# Test system: PXR:RXRa (NR concentration 270 nM, RXRa partner concentration 90 nM)
# experimental.protocol: PBM binding z-score (relative to random genomic background probes); higher = stronger binding; sequences stand for … in GC…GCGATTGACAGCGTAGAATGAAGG
readout.name: PBM binding z-score
Numbers only.

Consider the reported PBM binding z-score for these sequences:
{"columns": ["sequence.chain", "PBM binding z-score"],
 "data": [
  ["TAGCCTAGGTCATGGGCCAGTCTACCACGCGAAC", 1.48],
  ["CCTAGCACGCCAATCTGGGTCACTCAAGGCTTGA", 0.751],
  ["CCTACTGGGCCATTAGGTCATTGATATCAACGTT", 1.13],
  ["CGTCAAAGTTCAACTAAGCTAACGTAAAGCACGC", 4.69],
  ["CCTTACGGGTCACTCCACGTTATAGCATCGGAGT", 2.39]
]}

# map each sequence to its PBM binding z-score
1. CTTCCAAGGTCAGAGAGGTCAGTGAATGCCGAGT
2. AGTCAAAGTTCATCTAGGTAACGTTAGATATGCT
3. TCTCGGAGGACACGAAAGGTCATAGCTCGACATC
4. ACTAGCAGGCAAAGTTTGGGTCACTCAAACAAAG
5. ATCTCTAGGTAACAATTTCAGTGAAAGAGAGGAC
6. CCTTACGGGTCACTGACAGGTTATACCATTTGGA
7. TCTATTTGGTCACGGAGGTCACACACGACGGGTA
8. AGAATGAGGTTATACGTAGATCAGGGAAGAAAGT

[5.75, 5.32, 5.31, 0.68, 0.204, 3.75, 4.86, 1.2]

Would you mind listing PBM binding z-score for each of the following sequences?
1. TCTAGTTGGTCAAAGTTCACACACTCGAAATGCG
2. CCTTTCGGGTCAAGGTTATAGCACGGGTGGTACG

[5.09, 3.67]

The reported numbers originate from the supplement of paper PMC6555819.
